Reference source: the kinase profiling compilation of Christmann-Franck et al. (2016)

Overview of recorded residual activity for various compounds
target.or.system: RAF1 (human) (UniProt P04049)
Sequence (P04049 whole entry, looked up): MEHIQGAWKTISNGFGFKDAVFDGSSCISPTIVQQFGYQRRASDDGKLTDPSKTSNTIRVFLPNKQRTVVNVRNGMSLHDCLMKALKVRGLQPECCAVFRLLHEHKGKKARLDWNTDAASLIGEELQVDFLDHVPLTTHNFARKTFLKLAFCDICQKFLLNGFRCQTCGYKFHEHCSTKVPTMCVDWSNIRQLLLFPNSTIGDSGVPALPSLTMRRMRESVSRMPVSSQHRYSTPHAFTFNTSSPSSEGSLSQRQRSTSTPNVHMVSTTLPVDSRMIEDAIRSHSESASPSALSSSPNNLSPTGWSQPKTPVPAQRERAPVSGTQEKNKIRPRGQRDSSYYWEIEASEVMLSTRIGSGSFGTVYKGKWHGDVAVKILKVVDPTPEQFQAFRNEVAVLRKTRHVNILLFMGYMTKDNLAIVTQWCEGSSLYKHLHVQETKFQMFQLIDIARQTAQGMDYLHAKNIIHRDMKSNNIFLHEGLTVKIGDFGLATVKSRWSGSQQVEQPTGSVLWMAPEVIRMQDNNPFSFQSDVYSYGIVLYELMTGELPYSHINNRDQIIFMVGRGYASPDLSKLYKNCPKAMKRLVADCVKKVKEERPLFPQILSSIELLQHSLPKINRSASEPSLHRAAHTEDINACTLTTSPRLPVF
protocol.summary: radiometric filter-binding kinase assay, Kinase HotSpot
measurement.parameters: compound 0.5 µM; ATP 10 µM

Some solved cases for reference:
# entry.smiles, residual activity
measured = [
    ("O=C1NC(=O)c2c1c1c3ccccc3n3c1c1c2c2ccccc2n1C1CCC3O1", "121%"),
    ("Nc1cccc(-c2cc3c(Oc4cccc(O)c4)ncnc3[nH]2)c1", "85.9%"),
]

// sample `CC(C)N(CCC(=O)c1ccc2ccccc2c1)Cc1ccccc1` , its residual activity was 87.3%

// sample `O=C1NC(=O)/C(=C/c2ccc3c(c2)OC(F)(F)O3)S1` , its residual activity was 95.5%

// sample `COc1cc2ncnc(Nc3cccc(Cl)c3)c2cc1OC` , its residual activity was 78.4%

// sample `CC(=O)c1ccc(N2CCOCC2)cc1O` , its residual activity was 96.2%

// sample `O=C1Nc2ccc(Cl)cc2/C1=C/c1cc(Cl)c(O)c(Cl)c1` , its residual activity was 6.93%

// sample `c1ccc(-c2n[nH]c3c2oc2ccccc23)cc1` , its residual activity was 94.9%

// sample `Nc1ccc2ncnc(NCCc3ccc(Oc4ccccc4)cc3)c2c1` , its residual activity was 98.2%

// sample `Nc1ncnc2c1c(-c1ccc(Oc3ccccc3)cc1)cn2C1CCCC1` , its residual activity was 71.3%

// sample `Cc1[nH]c(/C=C2\C(=O)Nc3ccc(S(=O)(=O)N(C)c4cccc(Cl)c4)cc32)c(C)c1C(=O)N1CCN(C)CC1` , its residual activity was 114%

---

target.or.system: EPHB4 (human) (UniProt P54760)
Sequence (P54760 whole entry, looked up): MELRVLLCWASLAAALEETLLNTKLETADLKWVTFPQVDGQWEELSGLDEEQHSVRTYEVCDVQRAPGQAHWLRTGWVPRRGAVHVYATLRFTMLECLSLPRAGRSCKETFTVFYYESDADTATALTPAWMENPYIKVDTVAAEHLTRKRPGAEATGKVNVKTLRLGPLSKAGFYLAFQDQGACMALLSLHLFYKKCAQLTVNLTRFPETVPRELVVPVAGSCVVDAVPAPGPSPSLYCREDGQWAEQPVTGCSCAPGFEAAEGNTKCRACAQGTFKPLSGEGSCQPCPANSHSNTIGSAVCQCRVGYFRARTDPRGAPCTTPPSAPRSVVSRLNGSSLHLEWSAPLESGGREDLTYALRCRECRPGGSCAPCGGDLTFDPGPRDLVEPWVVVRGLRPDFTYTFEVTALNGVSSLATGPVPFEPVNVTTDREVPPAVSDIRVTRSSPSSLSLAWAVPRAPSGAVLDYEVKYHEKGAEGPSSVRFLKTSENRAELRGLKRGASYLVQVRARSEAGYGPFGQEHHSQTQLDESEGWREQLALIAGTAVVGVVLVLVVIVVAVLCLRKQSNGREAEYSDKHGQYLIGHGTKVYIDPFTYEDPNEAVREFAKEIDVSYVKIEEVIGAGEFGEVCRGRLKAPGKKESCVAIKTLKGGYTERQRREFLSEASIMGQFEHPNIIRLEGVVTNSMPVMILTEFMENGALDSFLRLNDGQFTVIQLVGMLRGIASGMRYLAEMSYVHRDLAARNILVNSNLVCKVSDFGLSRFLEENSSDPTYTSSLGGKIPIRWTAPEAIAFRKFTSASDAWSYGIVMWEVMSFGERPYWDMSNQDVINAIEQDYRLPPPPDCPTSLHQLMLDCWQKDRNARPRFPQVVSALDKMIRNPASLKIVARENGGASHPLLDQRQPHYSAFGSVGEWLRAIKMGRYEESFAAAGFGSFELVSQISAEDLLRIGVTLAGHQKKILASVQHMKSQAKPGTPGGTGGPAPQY
protocol.summary: radiometric filter-binding kinase assay, Kinase HotSpot
measurement.parameters: compound 0.5 µM; ATP 10 µM
Overview of recorded residual activity for various compounds
Quick reminder: number only, in %, skip the unit.

# entry.smiles, measurement
rows = [
    ("Cc1[nH]c(/C=C2\\C(=O)Nc3ccc(S(=O)(=O)N(C)c4cccc(Cl)c4)cc32)c(C)c1C(=O)N1CCN(C)CC1", 95.4),
    ("CC[n+]1c(/C=C/N(C)c2ccccc2)n(-c2ccccc2)c2ccc(-c3nc4ccccc4s3)cc21", 103),
    ("CC#CC(=O)Nc1cc2c(Nc3ccc(F)c(Cl)c3)ncnc2cn1", 83.4),
    ("CC(=O)c1ccc(N2CCOCC2)cc1O", 97.6),
]

EPHB4 (human) (UniProt P54760) residual activity of `Oc1cccc(-c2nc(N3CCOCC3)c3oc4ncccc4c3n2)c1` is 104

EPHB4 (human) (UniProt P54760) residual activity of `CCCC(=O)Oc1ccc2[nH]c(C(=O)c3cc4ccccc4[nH]3)cc2c1` is 101

EPHB4 (human) (UniProt P54760) residual activity of `CCOC(=O)c1c(C)[nH]c(/C=C2\C(=O)Nc3ccccc32)c1C` is 89.5

EPHB4 (human) (UniProt P54760) residual activity of `Nc1ccc2ncnc(NCCc3ccc(Oc4ccccc4)cc3)c2c1` is 104

EPHB4 (human) (UniProt P54760) residual activity of `c1ccc(-c2n[nH]cc2-c2ccnc3ccccc23)nc1` is 89.1

---

target.or.system: SGK2 (human)
protocol.summary: radiometric filter-binding kinase assay, Kinase HotSpot
measurement.parameters: compound 0.5 µM; ATP 10 µM
Overview of recorded residual activity for various molecules
Remember to follow the number with its unit.

Some solved cases for reference:
# entry.smiles, target.or.system, measurement
records = [
    ("CC(C)N(CCC(=O)c1ccc2ccccc2c1)Cc1ccccc1", "SGK2 (human)", "101%"),
    ("CCOC(=O)c1c(C)[nH]c(/C=C2\\C(=O)Nc3ccccc32)c1C", "SGK2 (human)", "93.7%"),
    ("CCN(CC)C(=O)c1ccc(Nc2nc(OCC3CCCCC3)c3nc[nH]c3n2)cc1", "SGK2 (human)", "94.4%"),
]

Query molecule follows.
// sample `Cc1ccc(S(=O)(=O)/C=C/C#N)cc1` , its residual activity was 112%
